# assay.system: P. falciparum apicoplast DNA polymerase (Pf-apPOL) (Plasmodium falciparum)
# method.description: Fluorescence-based high-throughput DNA polymerase assay (molecular beacon), primary screen and dose-response
# Assay type: biochemical
# measurement.parameters: DRC-1; 180'; concentration 2.5
measured.endpoint: % inhibition apPOL 180' (%)
Express it in %; write the number only.

Give its % inhibition apPOL 180' value. Item: `Cc1cccc(-c2nnc3ccc(NS(=O)(=O)c4ccc(C)c(C)c4)nn23)c1`
2.98

Now consider `N#Cc1c(C2CCCCC2)nc(Sc2ccc(C(F)(F)F)cc2[N+](=O)[O-])[nH]c1=O` .
4.639

Now consider `Cc1cc(C)c2c(O)nc(SCC(=O)c3ccc(O)c(O)c3)nc2n1` .
28.0012

Now consider O=C(Cn1ccc2c(=O)[nH]ccc21)Nc1cc(F)ccc1F [Molecule 42, O=C(Cn1ccc2c1cc[nH]c2=O)Nc1cc(F)ccc1F] .
-7.978

###

So I've got a bunch of compounds here, and I need their % inhibition Apol 90' values.
# assay.system: P. falciparum apicoplast DNA polymerase (Pf-apPOL) (Plasmodium falciparum, UniProt Q8ILY1)
# Sequence (Q8ILY1 entry or part of it): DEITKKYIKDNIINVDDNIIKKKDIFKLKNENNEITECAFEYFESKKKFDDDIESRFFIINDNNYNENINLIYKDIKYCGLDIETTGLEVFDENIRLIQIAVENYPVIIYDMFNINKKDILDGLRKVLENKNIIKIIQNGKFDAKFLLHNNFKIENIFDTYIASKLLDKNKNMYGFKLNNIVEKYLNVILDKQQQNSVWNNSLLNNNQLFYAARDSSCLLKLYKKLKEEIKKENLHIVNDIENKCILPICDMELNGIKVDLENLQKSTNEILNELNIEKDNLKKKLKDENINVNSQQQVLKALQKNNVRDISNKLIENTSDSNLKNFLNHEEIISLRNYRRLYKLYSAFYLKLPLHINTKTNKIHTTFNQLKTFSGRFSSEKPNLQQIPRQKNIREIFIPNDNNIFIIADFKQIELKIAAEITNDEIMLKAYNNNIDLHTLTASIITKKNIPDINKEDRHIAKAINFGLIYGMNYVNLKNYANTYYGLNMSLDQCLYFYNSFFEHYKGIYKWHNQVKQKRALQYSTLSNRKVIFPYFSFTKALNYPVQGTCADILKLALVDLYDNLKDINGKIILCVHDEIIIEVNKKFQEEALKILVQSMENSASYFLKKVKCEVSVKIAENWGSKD
# method.description: Fluorescence-based high-throughput DNA polymerase assay (molecular beacon), primary screen and dose-response
# Type: biochemical
# measurement.parameters: DRC-1; 90'; concentration 5
Note: state the figure and append the unit.

Give its % inhibition Apol 90' value. Item: `Cc1ccc(C(=O)/C=C/C=C/C=C/N(C)C)o1`
37.6511%

Now consider `O=C1CCCC2=C1C(c1ccccn1)C1=C(CCCC1=O)O2` .
9.934%

Now consider `CCOc1cccc2cc(C(=O)Nc3nnc(-c4ccno4)o3)oc12` .
15.4654%

Now consider `O=C(Nc1ncc([N+](=O)[O-])s1)c1ccc2c(c1)C(=O)N(N1C(=O)c3ccccc3C1=O)C2=O` .
10.2523%

###

# assay.system: P. falciparum apicoplast DNA polymerase (Pf-apPOL) (Plasmodium falciparum, UniProt Q8ILY1)
# method.description: Fluorescence-based high-throughput DNA polymerase assay (molecular beacon), primary screen and dose-response
# Format: biochemical
# measurement.parameters: DRC-2; concentration 80; 5'
measured.endpoint: % inhibition Apo pol 5' (%)
Express it in %; write the number only.

Give its % inhibition Apo pol 5' value. Item: `COc1ccc(C=C2Oc3c(ccc4c3CN(Cc3ccco3)CO4)C2=O)c(OC)c1`
49

Now consider O=C(Cn1ccc2c(=O)[nH]ccc21)Nc1ccccc1Cl [Molecule 19, O=C(Cn1ccc2c1cc[nH]c2=O)Nc1ccccc1Cl] .
28

Now consider `O=C(Nc1c2c(nn1-c1ccccc1)CSC2)c1ccco1` .
59

Now consider `COc1ccc(NC(=O)Cn2nc3c(cc2=O)CCC3)cc1Cl` .
43

Now consider `O=C(Cc1cccs1)N1CCN(c2nc(CN3CCOCC3)cs2)CC1` .
35

Now consider `CCc1ccccc1NC(=O)c1ccc(-c2ncccc2NC(C)=O)cc1` .
47

Now consider `Cc1ccc(C2=N/C(=C\c3ccc(I)o3)C(=O)O2)cc1[N+](=O)[O-]` .
49

Now consider `O=[N+]([O-])c1ccc(SCc2ccco2)c2cccnc12` .
13

###

# assay.system: P. falciparum apicoplast DNA polymerase (Pf-apPOL) (Plasmodium falciparum)
# method.description: Fluorescence-based high-throughput DNA polymerase assay (molecular beacon), primary screen and dose-response
# Type: biochemical
# measurement.parameters: DRC-1; 10'; concentration 10
Short version: % inhibition Apo pol 10' at least 30% is class 1, less is class 0.

Assess whether reported % inhibition Apo pol 10' for COc1ccc(NC(=O)Cn2ccc3c(=O)[nH]ccc32)cc1 [Molecule 13, COc1ccc(cc1)NC(=O)Cn1ccc2c1cc[nH]c2=O] sits at 30% or higher.
class 1

Now consider CCN1C(=O)C(=Cc2cccc(OC)c2O)SC1=S [Molecule 78, CCN1C(=S)SC(=Cc2cccc(c2O)OC)C1=O] .
class 0

Now consider Cc1ccc2c(C(=O)NCCc3cccnc3)cc(NC(=O)C(C)C)cc2n1 [KU0206096] .
class 0

Now consider CN(C)S(=O)(=O)Oc1ccc(-c2noc(-c3ccc(Oc4cc(Cl)cc(Cl)c4)o3)n2)cc1 [KU0263859] .
class 1

Now consider Cn1nc(C(=O)N2CCc3c(nc4cc(-c5ccccc5)[nH]n4c3=O)C2)c2ccccc21 [Molecule 18] .
class 1

Now consider O=C1c2ccccc2C(=O)N1Oc1ccc([N+](=O)[O-])c([N+](=O)[O-])c1 [Molecule 66] .
class 0

Now consider Cc1ncc(CSc2nc(C(C)(C)C)cs2)c(CO)c1O [KU0264007] .
class 0

Now consider CCOc1cccc2cc(C(=O)Nc3nnc(-c4ccno4)o3)oc12 [Molecule 28, CCOc1cccc2c1oc(c2)C(=O)Nc1nnc(o1)c1ccno1] .
class 1

Now consider CC(NC(=O)Cc1cc(=O)[nH]c(SCc2cccc(Cl)c2)n1)c1ccccc1 (centres unmarked) [Molecule 67] .
class 0

Now consider Cc1ccc(C)c(CSc2nc(C3CCCCC3)c(C#N)c(=O)[nH]2)c1 [Molecule 6] .
class 1

Now consider CC(=O)Nc1cc(C(=O)NC(C)C)c2ccc(C)nc2c1 [KU0206312] .
class 0

Now consider O=c1cc(CN2CCCCC2)c2cc3c(cc2o1)OCO3 [Molecule 56, O=c1cc(CN2CCCCC2)c2c(o1)cc1c(c2)OCO1] .
class 0

Now consider O=C(O)CC1SC(c2ccc3c(c2)OCO3)=NC1=O (centres unmarked) [Molecule 69, OC(=O)CC1SC(=NC1=O)c1ccc2c(c1)OCO2] .
class 0

Now consider COc1ccc(-c2cc(=O)c3cc(O)ccc3o2)cc1OC [KU0193655] .
class 0

Now consider O=C(CSc1nnc(-c2ccncc2)[nH]1)c1ccc(O)c(O)c1 [Molecule 89] .
class 1

Now consider O=C(Cn1ccc2c(=O)[nH]ccc21)Nc1ccc(Cl)cc1 [Molecule 36, O=C(Cn1ccc2c1cc[nH]c2=O)Nc1ccc(cc1)Cl] .
class 0

Now consider CCCCSc1nnc2c(n1)OC(c1ccc([N+](=O)[O-])o1)Nc1ccccc1-2 (centres unmarked) [KU0065811] .
class 1

Now consider O=C(CSc1nnc(-c2ccco2)[nH]1)c1ccc(Cl)cc1 [KU0029065] .
class 1

Now consider NC(=O)c1cc[n+](CC2=C(C(=O)[O-])N3C(=O)[C@@H](NC(=O)[C@@H](c4ccccc4)S(=O)(=O)[O-])[C@H]3SC2)cc1.[Na+] [Molecule 9] .
class 1

Now consider CCOC(=O)C(NCc1ccco1)(NC(=O)c1ccco1)C(F)(F)F (centres unmarked) [KU0276119] .
class 0

Now consider O=C(NNC(=O)C(F)(F)Sc1ccccc1)c1ccsc1 [Molecule 68, O=C(C(Sc1ccccc1)(F)F)NNC(=O)c1cscc1] .
class 1

Now consider Oc1ccc(N=Nc2ccccc2)c(O)c1 [Molecule 80, Oc1ccc(c(c1)O)N=Nc1ccccc1] .
class 0

Now consider Cc1ccc(CCNC(=O)c2cnn3c(O)c(Cc4ccccc4F)c(C)nc23)cc1 [KU0097142] .
class 0

Now consider O=C(Nc1c2c(nn1-c1ccc(Oc3ccccc3)cc1)CSC2)c1ccco1 [KU0055927] .
class 1

Now consider O=C(Cn1ccc2c(=O)[nH]ccc21)Nc1cccc(Cl)c1 [Molecule 23, O=C(Cn1ccc2c1cc[nH]c2=O)Nc1cccc(c1)Cl] .
class 1

Now consider COc1ccc(C(=O)Nc2cccc(-c3nc4ncccc4o3)c2)cc1[N+](=O)[O-] [KU0063313] .
class 1

Now consider COc1ccc2c(c1)CCc1c-2nc2ccc(Br)cc2c1C(=O)O [KU0059417] .
class 1

Now consider Cc1nn(CC(=O)NCCSCc2ccco2)c(C)c1Br [KU0267182] .
class 0

Now consider Cc1ccc(NC(=O)Cn2ccc3c(=O)[nH]ccc32)cc1F [Molecule 48, O=C(Cn1ccc2c1cc[nH]c2=O)Nc1ccc(c(c1)F)C] .
class 1

Now consider COc1ccc(C)cc1NC(=O)Cn1ccc2c(=O)[nH]ccc21 [Molecule 15, COc1ccc(cc1NC(=O)Cn1ccc2c1cc[nH]c2=O)C] .
class 1

Now consider CCOC(=O)C1=C2c3cc(OC)c(OC)cc3CC(C)(C)N2C(=O)C1=O [KU0193659] .
class 0

###

So I've got a bunch of compounds here, and I need their % inhibition ApPOL 90' values.
# assay.system: P. falciparum apicoplast DNA polymerase (Pf-apPOL) (Plasmodium falciparum, UniProt Q8ILY1)
# method.description: Fluorescence-based high-throughput DNA polymerase assay (molecular beacon), primary screen and dose-response;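 for % inhibition ApPOL 90': test concentration in µM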
# Format: biochemical
# measurement.parameters: DRC-2; 90'; concentration 2.5
Note: state the figure and append the unit.

Give its % inhibition ApPOL 90' value. Item: `CCCCOC(=O)CCCCCN1C(=O)C(=Cc2ccc(OC)cc2)SC1=S`
-1%

Now consider O=c1[nH]c2ccc(Br)cc2c(-c2ccccc2)c1C1=NNC(c2ccco2)C1 (stereo not shown) .
15%

Now consider `CCCCc1ccc(NC(=O)CSc2nc(O)c(C#N)c(C3CCCCC3)n2)c(C)c1` .
1.18%

Now consider `COc1cccc(Oc2c(C(F)(F)F)oc3cc(OC(=O)N(C)C)ccc3c2=O)c1` .
14%
